Biological target: T1, Claudin 18.2 (CLDN18.2), expressed on CHOS-CLDN 18.2 / HEK293-CLDN 18.2 / HCC827-CLDN 18.2 cells (human, UniProt P56856-2 1-261)
T1 construct: whole, on cells; The species is not repeated for the CHOS-CLDN 18.2 cells; also called claudin-18A2
Assay: FACS, CHOS-CLDN18.2 cells, 20 µg/ml
Observed property: FACS reading
Lab note: write the figure by itself, no unit.

Could you tell me which FACS reading is on file for QP024025 (antibody, human IgG1, V domains shown, also called IMAB362; 175D10(IMAB362)) VH: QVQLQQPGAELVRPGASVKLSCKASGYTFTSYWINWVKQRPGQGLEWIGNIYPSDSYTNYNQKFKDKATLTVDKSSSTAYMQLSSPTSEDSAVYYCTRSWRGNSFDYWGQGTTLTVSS VL: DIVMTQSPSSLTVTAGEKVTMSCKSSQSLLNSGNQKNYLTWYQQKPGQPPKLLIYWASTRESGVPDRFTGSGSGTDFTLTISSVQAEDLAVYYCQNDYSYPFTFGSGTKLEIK ?
72300
